molecular target: Alpha-synuclein (Homo sapiens); assay: Inhibition of YFP-tagged human alpha-synuclein aggregation expressed in transgenic Caenorhabditis elegans model NL5901 incubated for 48 hrs by fluorescent microscopy relative to untreated control

[
  {
    "compound": "COc1cc(-c2cc3cc(C4C5=C(CCCC5=O)Oc5nc6c(c(N)c54)CCCC6)cc(C(C)C)c3oc2=O)cc(OC)c1OC (racemic)",
    "targetOfAssay": "Alpha-synuclein (Homo sapiens)",
    "fold change (FC)": 2.6
  },
  {
    "compound": "CCC(C)c1cc(C2C3=C(CCCC3=O)Oc3nc4c(c(N)c32)CCCC4)cc2cc(-c3cc(OC)c(OC)c(OC)c3)c(=O)oc12 (racemic)",
    "targetOfAssay": "Alpha-synuclein (Homo sapiens)",
    "fold change (FC)": 2.1
  },
  {
    "compound": "CCC(C)c1cc(C2C3=C(CCCC3=O)Oc3nc4c(c(N)c32)CCC4)cc2cc(-c3cc(OC)c(OC)c(OC)c3)c(=O)oc12 (racemic)",
    "targetOfAssay": "Alpha-synuclein (Homo sapiens)",
    "fold change (FC)": 1.76
  },
  {
    "compound": "CCC(C)c1cc(C2C3=C(CC(C)(C)CC3=O)Oc3nc4c(c(N)c32)CCCC4)cc2cc(-c3cc(OC)c(OC)c(OC)c3)c(=O)oc12 (racemic)",
    "targetOfAssay": "Alpha-synuclein (Homo sapiens)",
    "fold change (FC)": 1.35
  },
  {
    "compound": "CCC(C)c1cc(C2C3=C(CC(C)(C)CC3=O)Oc3nc4c(c(N)c32)CCCC4)cc2cc(-c3ccc(OC)cc3)c(=O)oc12 (racemic)",
    "targetOfAssay": "Alpha-synuclein (Homo sapiens)",
    "fold change (FC)": 2
  }
]
